tested on: Plasmodium falciparum NF54 stage V gametocytes; test: viability index relative to DMSO control (fraction); higher = less gametocyte killing; details: 2.5 µM, library set: Broad Institute DOS, incubation time: 72 h
Whole data set: some 9,900 compounds, median “viability index relative to DMSO control” near 1, cut for the lowest 2% near 0.85. The sample holds the lowest values, similar compounds and a random draw of the others, so the mix is not that of the screen.
readout: viability index
Number, no unit, nothing else.

>>> val("C[C@@H]1CN([C@@H](C)CO)C(=O)c2cc(NC(=O)Cn3cnnn3)ccc2O[C@H]1CN(C)Cc1ccc(C(=O)Nc2ccccc2N)cc1")
1
>>> val("Cc1noc(C)c1NC(=O)Nc1ccc2c(c1)C(=O)N(C)[C@H]1CC[C@H](CC(=O)Nc3ccc4c(c3)CCCC4)O[C@@H]1CO2")
1.09
>>> val("CNC[C@@H]1OCCCC[C@@H](C)Oc2ccc(NC(=O)Nc3ccc(OC)cc3)cc2C(=O)N([C@H](C)CO)C[C@H]1C")
1.05
>>> val("CO[C@H](CN(C)Cc1ccc2c(c1)OCO2)[C@H](C)CN(C(=O)c1ccccc1)[C@@H](C)CO")
1.07
>>> val("Cc1cccc(-c2ccc([C@H]3[C@@H](CO)N4CCCCN(S(=O)(=O)c5ccccc5F)C[C@@H]34)cc2)c1")
1

For the compound `CCCNC(=O)Nc1ccc2c(c1)OC[C@H](C)N(Cc1cncnc1)C[C@@H](C)[C@H](OC)CN(C)C2=O` , give its measured viability index value.
0.989

For the compound `O=C(C[C@H]1C=C[C@@H](NC(=O)c2ccncc2)[C@@H](CO)O1)NCC1CC1` , give its measured viability index value.
1.08

For the compound `CN(C)C(=O)C[C@@H]1C=C[C@H](NC(=O)c2ccc(F)cc2)[C@@H](CO)O1` , give its measured viability index value.
1.11

====

test system: Plasmodium falciparum NF54 stage V gametocytes; assay: viability index relative to DMSO control (fraction); higher = less gametocyte killing; details: 2.5 µM, library set: Broad Institute DOS, incubation time: 72 h
The full ranking holds about 9,900 compounds; the median of “viability index relative to DMSO control” is about 1, and the lowest 2% start at about 0.85. What follows is part of a selection rich in the lowest values, with near analogues and random picks from the rest.
readout: viability index
Number, no unit, nothing else.

Study these solved cases before continuing.
>>> val("C[C@@H]1CN([C@H](C)CO)C(=O)c2ccccc2-c2ccccc2CO[C@@H]1CN(C)C(=O)c1cc(Cl)cc(Cl)c1")
0.852
>>> val("C[C@H](CO)N1C[C@H](C)[C@@H](CN(C)Cc2ccc(Oc3ccccc3)cc2)OCc2ccccc2-c2ccccc2C1=O")
0.801
>>> val("C[C@@H]1CN([C@@H](C)CO)C(=O)c2ccccc2-c2ccccc2CO[C@H]1CN(C)C(=O)c1cc(Cl)cc(Cl)c1")
0.937

For the molecule `Cc1ccc(OC(=O)N(C)C[C@@H]2OCc3ccccc3-c3ccccc3C(=O)N([C@H](C)CO)C[C@@H]2C)cc1` , give its measured viability index value.
0.993

====

system: Plasmodium falciparum NF54 stage V gametocytes; assay: viability index relative to DMSO control (fraction); higher = less gametocyte killing; conditions: 2.5 µM, library set: Broad Institute DOS, incubation time: 72 h
The full ranking holds about 9,900 compounds; the median of “viability index relative to DMSO control” is about 1, and the lowest 2% start at about 0.85. What follows is part of a selection rich in the lowest values, with near analogues and random picks from the rest.
Mark each entry TRUE if its viability index sits below 1, and FALSE for all others.

As a guide, the following entries are already answered.
>>> label_value("O=C(Nc1cc(F)ccc1F)N1CCCCN2[C@H](CO)[C@H](c3ccc(C4=CCCCC4)cc3)[C@@H]2C1")
"TRUE"
>>> label_value("COc1ccccc1S(=O)(=O)N1[C@@H]2CNC[C@H]1[C@@H]2c1ccc(-c2ccncc2)cc1")
"FALSE"
>>> label_value("O=C(NCC[C@@H]1CC[C@@H](NS(=O)(=O)Cc2ccccc2)[C@@H](CO)O1)C1CCCCC1")
"TRUE"

Field: below-cutoff. Rule: recorded viability index strictly less than 1. Subject: `COc1ccc(S(=O)(=O)Nc2ccc3c(c2)CC(=O)N([C@H](C)CO)C[C@@H](C)[C@@H](CN(C)C(=O)Nc2c(C)noc2C)O3)cc1`
FALSE

Field: below-cutoff. Rule: recorded viability index strictly less than 1. Subject: `COCC(=O)N1C[C@@H](C)[C@H](OC)CN(C)C(=O)c2ccc(NC(=O)Nc3cccc(F)c3)cc2OC[C@@H]1C`
FALSE

Field: below-cutoff. Rule: recorded viability index strictly less than 1. Subject: `COc1ccc(S(=O)(=O)N(C)C[C@@H]2Oc3ccc(NC(=O)Nc4ccc(C(F)(F)F)cc4)cc3C(=O)N([C@H](C)CO)C[C@H]2C)cc1`
TRUE

Field: below-cutoff. Rule: recorded viability index strictly less than 1. Subject: `CO[C@H]1CN(C)C(=O)c2ccc(NS(C)(=O)=O)cc2OC[C@H](C)N(CC2CC2)C[C@@H]1C`
FALSE

Numbers sourced from the supplement of paper PMC4723716.
